In this section, each of the compounds is paired with its reported DC50.
target: UniProtKB Q9H8M2; assay: HiBiT BRD9 degradation assay in 293T.166 (BRD9-HiBiT) cells; format: cell-based; parameters: endogenously expressing BRD9 with HiBiT fusion tag via CRISPR; host or cells: 293T.166 (BRD9-HiBiT), also expressing LgBiT ectopically; conditions: Table 1; 293T.166 cells, 2.0 hours; class symbols; read-out: HiBiT-Degradation 293T.166 BRD9 2.0 hours (DC50)

Qu. Give the measured DC50 of COc1cc(-c2cn(C)c(=O)c3[nH]ncc23)cc(F)c1C=C1CCN(CC(=O)N2CCC(c3ccc(NC4CCC(=O)NC4=O)cc3)CC2)CC1 (stereo not drawn) [Compound 157] .
Ans. < 100 nM

Qu. Now the compound COc1cc(-c2cn(C)c(=O)c3[nH]ncc23)cc(OC)c1CN1CC(NC(=O)CN2CCC(c3ccc(NC4CCC(=O)NC4=O)cc3)CC2)C1 (stereo not drawn) [Compound 5]
Ans. < 100 nM

###

Reported half-life is given for each of the following compounds.
test: PO PK, rat; assay type: in vivo; conditions: in vivo, read-out: PO PK t1/2 (converted)
// units = h; emit number, no label

compound | half-life / h
COc1cc(-c2cn(C)c(=O)c(C)c2C)cc(OC)c1CN1CCC(N2CCN(c3ccc(NC4CCC(=O)NC4=O)cc3F)CC2)C(F)(F)C1 (centres unmarked) [Compound 172] | 4.3

Please turn your attention to the following entry.
Qu. Quick one: half-life for COc1cc(-c2cn(C)c(=O)c(C)c2C)cc(OC)c1CN1CCC(N2CCN(c3ccc(NC4CCC(=O)NC4=O)cc3F)CC2)C(F)(F)C1 (single isomer, unassigned) [Compound 176] ?
Ans. 5.1

###

assay: Hepatocyte stability, rat; type: in vitro ADME; settings: rat hepatocytes; read-out: Hepatocyte stability, Clint scaled ws
Reported CLint scaled values are given for each entry in this list.
Expressed in mL/min/kg, but write only the number.

molecule | property-name | recorded-number
COc1cc(-c2cn(C)c(=O)c(C)c2C)cc(OC)c1CN1CCC(N2CCN(c3ccc(NC4CCC(=O)NC4=O)cc3F)CC2)C(F)(F)C1 (single isomer, unassigned) [Compound 176] | CLint scaled | 14.2

Kindly consider the entry below.
Qu. Requested field: CLint scaled. Item: COc1cc(-c2cn(C)c(=O)c(C)c2C)cc(OC)c1CN1CCC(N2CCN(c3ccc(NC4CCC(=O)NC4=O)cc3F)CC2)C(F)(F)C1 (centres unmarked) [Compound 172]
Ans. 15

###

DC50 overview
Target: BRD9 (Homo sapiens, UniProt Q9H8M2)
Sequence (Q9H8M2 1-597): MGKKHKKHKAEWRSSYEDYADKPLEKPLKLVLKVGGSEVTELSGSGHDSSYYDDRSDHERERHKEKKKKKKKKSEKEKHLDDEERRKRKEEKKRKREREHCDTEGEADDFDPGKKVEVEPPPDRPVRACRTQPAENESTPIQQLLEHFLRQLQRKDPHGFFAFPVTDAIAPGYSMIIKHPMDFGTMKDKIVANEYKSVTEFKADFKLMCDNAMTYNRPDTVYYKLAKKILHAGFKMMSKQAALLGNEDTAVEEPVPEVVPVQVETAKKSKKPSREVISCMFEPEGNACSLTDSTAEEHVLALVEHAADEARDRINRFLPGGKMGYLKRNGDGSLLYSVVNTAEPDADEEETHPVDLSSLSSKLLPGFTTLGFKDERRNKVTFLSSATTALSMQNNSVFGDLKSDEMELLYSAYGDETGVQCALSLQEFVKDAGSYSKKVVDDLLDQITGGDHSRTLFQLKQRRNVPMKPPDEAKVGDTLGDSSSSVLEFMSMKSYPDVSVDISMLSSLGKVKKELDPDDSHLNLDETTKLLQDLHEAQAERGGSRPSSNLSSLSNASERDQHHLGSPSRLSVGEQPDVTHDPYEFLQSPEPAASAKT
Test: HiBiT BRD9 degradation assay in 293T.166 (BRD9-HiBiT) cells
Type: cell-based
Parameters: endogenously expressing BRD9 with HiBiT fusion tag via CRISPR; host or cells: 293T.166 (BRD9-HiBiT), also expressing LgBiT ectopically
Details: Table 1; 293T.166 cells, 2.0 hours; class symbols; read-out: HiBiT-Degradation 293T.166 BRD9 2.0 hours (DC50)

Past entries and their recorded results:
compound | result
COc1cc(-c2cn(C)c(=O)c3[nH]ncc23)cc(OC)c1CN1C[C@@H]2C[C@H]1CN2C(=O)CN1CCC(c2ccc(NC3CCC(=O)NC3=O)cc2)CC1 (some centres unmarked) | < 0.1 µM
COc1cc(-c2cn(C)c(=O)c3ccc(F)cc23)cc(OC)c1CN1CCN(C(=O)CN2CCC(c3ccc(NC4CCC(=O)NC4=O)cc3)CC2)CC1 (centres unmarked) | < 0.1 µM
Cc1c(-c2ccc(C(=O)N3CCC(N(C)C(=O)N4CCC(c5ccc(NC6CCC(=O)NC6=O)cc5)CC4)CC34CC4)c(OC(F)(F)F)c2)cn(C)c(=O)c1C (centres unmarked) | < 0.1 µM
COc1cc(-c2cn(C)c(=O)c(C)c2C)cc(Cl)c1C(=O)N1CCC(C2CCN(c3ccc(NC4CCC(=O)NC4=O)cc3F)CC2)CC1 (centres unmarked) | < 0.1 µM
COc1cc(-c2cn(C)c(=O)c3cnccc23)cc(Cl)c1CN1CCC(C2CCN(c3ccc(NC4CCC(=O)NC4=O)cc3F)CC2)C(F)(F)C1 (centres unmarked) | < 0.1 µM
COc1cc(-c2cn(C)c(=O)c3cnccc23)cc(Cl)c1C(=O)N1CCc2c(CC3CCN(c4ccc(NC5CCC(=O)NC5=O)cc4F)CC3)ccc(F)c2C1 (centres unmarked) | < 0.1 µM

Qu. Given COc1cc(-c2cn(C)c(=O)c3cnccc23)cc(Cl)c1CN1CCC(C2CCN(c3ccc(NC4CCC(=O)NC4=O)cc3C(F)(F)F)CC2)CC1 (centres unmarked) , state its recorded DC50.
Ans. < 0.1 µM

Qu. Another compound to check: COc1cc(-c2cn(C)c(=O)c3cnccc23)cc(Cl)c1CN1CCC(N2CCN(c3ccc(NC4CCC(=O)NC4=O)nc3)CC2)C(F)(F)C1 (centres unmarked)
Ans. < 0.1 µM

Qu. Follow-up entry: COc1cc(-c2cn(C)c(=O)c3[nH]ncc23)cc(OC)c1CN1CCN(C(=O)CN2CCC(c3ccc(NC4CCC(=O)NC4=O)cc3C(F)(F)F)CC2)CC1 (centres unmarked)
Ans. < 0.1 µM

Qu. Another compound to check: COc1cc(-c2cn(C)c(=O)c3cnccc23)cc(Cl)c1CN1CCC(N2CCN(c3ccc(NC4CCC(=O)NC4=O)cc3Cl)CC2)C(F)(F)C1 (centres unmarked)
Ans. < 0.1 µM

Qu. Consider next the compound COc1cc(-c2cn(C)c(=O)c3cnccc23)cc(F)c1C(=O)N1CCC(N2CCN(c3ccc(NC4CCC(=O)NC4=O)cc3F)CC2)C(F)(F)C1 (centres unmarked) in the same way.
Ans. < 0.1 µM

Qu. Entry COc1cc(-c2cn(C)c(=O)c3[nH]ncc23)cc(OC)c1CNc1ccc(CC2CCN(c3ccc(NC4CCC(=O)NC4=O)cc3)CC2)cc1 (centres unmarked) please
Ans. < 0.1 µM
